- TESTED_ON: rat MCH-1 (Rattus norvegicus, UniProt P97639)
- Sequence (P97639 whole entry): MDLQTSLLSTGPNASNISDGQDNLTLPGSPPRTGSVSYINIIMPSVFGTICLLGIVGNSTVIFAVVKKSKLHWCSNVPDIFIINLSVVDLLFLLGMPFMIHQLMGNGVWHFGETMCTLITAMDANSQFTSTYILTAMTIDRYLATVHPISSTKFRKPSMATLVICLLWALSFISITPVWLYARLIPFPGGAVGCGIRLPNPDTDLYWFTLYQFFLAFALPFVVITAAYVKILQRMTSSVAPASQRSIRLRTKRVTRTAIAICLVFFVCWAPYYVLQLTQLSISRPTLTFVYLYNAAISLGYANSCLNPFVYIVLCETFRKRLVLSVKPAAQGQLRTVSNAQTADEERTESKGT
- EXPERIMENT: Radioligand binding assay at cloned rat MCH1 receptor ([3H] Compound A)
- Parameters: host or cells: Peak rapid 293 (Peakr293) cells, transient calcium phosphate transfection, membranes
- EXPERIMENTAL_CONDITIONS: cloned rat MCH1 receptor, membranes from Peakr293 cells, 0.08 nM [3H] Compound A; read-out: Ki (nM) rMCH1
# reported log10(Ki); entries follow
Field: value | Transform: log10 | Quantity: Ki | Unit: nM

| MOL_SMILES | REPORTED_RESULT |
| --- | --- |
| CC(C)C(=O)Nc1cccc(C2CCN(Cc3ccc(Oc4ccccc4)nc3)CC2)c1 | 1.68 |
| COc1ccc2[nH]cc(CN3CCC(c4cccc(NC(=O)C(C)C)c4)CC3)c2c1 | 2.79 |
| CC(C)C(=O)Nc1cccc(C2CCN(CCCc3c(-c4ccccc4)[nH]c4ccc(OC(F)(F)F)cc34)CC2)c1 | 0.34 |
| COc1ccc2[nH]cc(CCCN3CCC(c4cccc(NC(=O)C(C)C)c4)CC3)c2c1 | 0.73 |
| COc1ccc(OCCCCN2CCC(c3cccc(NC(=O)C(C)C)c3)CC2)cc1 | 2.85 |
| CC(C)C(=O)Nc1cccc(C2CCN(CCCc3c(-c4ccccc4)[nH]c4c3ccc3ccccc34)CC2)c1 | 1.32 |
| CCn1c2ccccc2c2cc(CN3CCC(c4ccc(C)c(NC(=O)C(C)C)c4)CC3)ccc21 | 1.31 |

Consider now this further compound.
Query: Provide log10(Ki), system rat MCH-1 (Rattus norvegicus, UniProt P97639), entry CC(C)C(=O)Nc1cccc(C2CCN(Cc3ccc(-c4ccccc4)s3)CC2)c1
Response: 2.10

----------
- TESTED_ON: rat MCH-1 (Rattus norvegicus, UniProt P97639)
- EXPERIMENT: Radioligand binding assay at cloned rat MCH1 receptor ([3H] Compound A)
- Set-up: host or cells: Peak rapid 293 (Peakr293) cells, transient calcium phosphate transfection, membranes
- EXPERIMENTAL_CONDITIONS: cloned rat MCH1 receptor; 0.08 nM [3H] Compound A; Peakr293 cell membranes; read-out: Ki (nM) rMCH1
# reported log10 of Ki; entries follow
Field: value | Transform: log10 | Quantity: Ki | Unit: nM

Please review the entries below; each comes with its answer.
| MOLECULE | REPORTED_RESULT |
| --- | --- |
| CC(C)C(=O)Nc1cccc(C2CCN(Cc3ccc4c(ccn4-c4cccc(Cl)c4)c3)CC2)c1 | 1.20 |
| Cc1cccc2c(CCCCN3CCC(c4cccc(NC(=O)C(C)C)c4)CC3)c(-c3ccccc3)[nH]c12 | 1.07 |
| Cc1cccc2c(CCCN3CCC(c4cccc(NC(=O)C(C)C)c4)CC3)c(-c3cccc([N+](=O)[O-])c3)[nH]c12 | 1.38 |
| CC(C)C(=O)Nc1cccc(C2CCN(CCCCC(=O)c3ccc([N+](=O)[O-])cc3)CC2)c1 | 1.52 |
| CC(C)C(=O)Nc1cccc(C2CCN(CCCCC(Oc3ccc(Cl)cc3)c3ccc(F)cc3)CC2)c1 (stereo not shown) | 1.45 |

Query: // fetch log10 of Ki given entry CC(=O)Nc1cccc(C2CCN(CCCNC(=O)C3=C(C)NC(=O)CC3c3ccc(F)cc3F)CC2)c1 (stereo not shown)
Response: 2.21

Query: // fetch log10 of Ki given entry CCCC(=O)Nc1ccc(C2CCN(Cc3cn(-c4ccc(C)cc4)c4ccccc34)CC2)cc1
Response: 2.61

Query: // fetch log10 of Ki given entry CC(C)C(=O)Nc1cccc(C2CCN(CCCCC(O)c3ccccc3F)CC2)c1 (stereo not shown)
Response: 2.20

Query: // fetch log10 of Ki given entry Cc1ccc(C(=O)CCCN2CCC(c3cccc(N(C)C(=O)C(C)C)c3)CC2)cc1C
Response: 2.74

Query: // fetch log10 of Ki given entry CC(C)C(=O)Nc1ccc(C2CCN(CCCCCn3ccc4ccccc43)CC2)cc1
Response: 2.78
